The measured values listed here are drawn from ChEMBL document CHEMBL1949520.

Listing of recorded log10 GI50 by entry.
# Tested on: ZR-75-1
# Experiment Summary: Growth inhibition of human ZR-75-1 cells by SRB assay
# Format: functional
Endpoint: log10 GI50 (log10 of the value in µM)

| Chemical Structure | log10 GI50 |
| --- | --- |
| Oc1cccc2[nH]c(-c3ccc(-c4ccc(-c5ccc(C(F)(F)F)cc5)cc4)cc3)nc12 | 0.71 |
| COc1cc(-c2ccc(-c3ccc(-c4nc5ccccc5[nH]4)cc3)cc2)cc(OC)c1OC | 0.99 |
| CN(C)c1ccc(-c2ccc(-c3ccc(-c4nc5c(O)cccc5[nH]4)cc3)cc2)cc1 | 0.61 |
| COc1cc(-c2ccc(-c3ccc(-c4nc5cc(C)ccc5[nH]4)cc3)cc2)cc(OC)c1OC | -0.72 |
| Oc1cccc2[nH]c(-c3ccc(-c4ccc(-c5ccccc5)cc4)cc3)nc12 | 1.55 |
| Cc1ccc2[nH]c(-c3ccc(-c4ccc(-c5ccc(F)cc5)cc4)cc3)nc2c1 | 1.54 |
| c1ccc(-c2ccc(-c3ccc(-c4nc5ccccc5[nH]4)cc3)cc2)cc1 | 2.00 |
| Cc1ccc2[nH]c(-c3ccc(-c4ccc(-c5cccc(Cl)c5)cc4)cc3)nc2c1 | 0.54 |
| Oc1cccc2[nH]c(-c3ccc(-c4ccc(-c5ccc(F)cc5)cc4)cc3)nc12 | 0.80 |
